# study.target: T1, dimeric human PRLR (hPRLR.mFc; SEQ ID NO:402) (Homo sapiens, UniProt P16471)
# T1 construct: dimeric (hPRLR.mFc)
# T1 sequence (P16471 with tags, fused parts or gaps): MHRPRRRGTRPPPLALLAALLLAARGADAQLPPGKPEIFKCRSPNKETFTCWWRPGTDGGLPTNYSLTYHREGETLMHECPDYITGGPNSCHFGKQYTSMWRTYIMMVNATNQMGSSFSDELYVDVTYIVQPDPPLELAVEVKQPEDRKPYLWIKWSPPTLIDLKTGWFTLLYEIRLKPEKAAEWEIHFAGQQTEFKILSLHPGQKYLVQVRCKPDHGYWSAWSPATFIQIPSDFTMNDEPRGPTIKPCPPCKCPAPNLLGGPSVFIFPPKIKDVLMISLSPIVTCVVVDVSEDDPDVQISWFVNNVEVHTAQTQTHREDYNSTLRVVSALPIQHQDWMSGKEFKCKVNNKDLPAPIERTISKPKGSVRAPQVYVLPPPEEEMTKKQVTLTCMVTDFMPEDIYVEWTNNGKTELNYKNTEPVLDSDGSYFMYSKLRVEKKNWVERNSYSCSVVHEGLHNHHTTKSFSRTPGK
# measurement.notes: Surface plasmon resonance (Biacore T200), antibody-capture format
# Type: binding
# experimental.parameters: 25° C., analyte hPRLR.mFc
# reported kd; entries follow

| molecule | kd [s⁻¹] |
| --- | --- |
| H1H6795P: fully human anti-PRLR antibody, human IgG1 Fc; HCVR/LCVR SEQ ID NOs 162/170 (antibody, V domains shown) VH: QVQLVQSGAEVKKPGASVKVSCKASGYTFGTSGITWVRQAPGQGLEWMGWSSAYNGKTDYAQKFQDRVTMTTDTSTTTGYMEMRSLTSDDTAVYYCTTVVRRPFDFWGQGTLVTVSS VL: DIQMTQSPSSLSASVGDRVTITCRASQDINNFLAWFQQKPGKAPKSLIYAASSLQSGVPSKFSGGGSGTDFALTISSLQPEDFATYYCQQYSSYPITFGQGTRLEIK | 8.41e-05 |
| H1H6966N: anti-PRLR antibody, human IgG1 Fc form of H2M6966N of Table 1; HCVR/LCVR SEQ ID NOs 338/346 (antibody, V domains shown, human IgG1 Fc) VH: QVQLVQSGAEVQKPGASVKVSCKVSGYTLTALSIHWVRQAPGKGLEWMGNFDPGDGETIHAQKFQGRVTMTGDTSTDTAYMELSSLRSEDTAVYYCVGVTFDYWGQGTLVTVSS VL: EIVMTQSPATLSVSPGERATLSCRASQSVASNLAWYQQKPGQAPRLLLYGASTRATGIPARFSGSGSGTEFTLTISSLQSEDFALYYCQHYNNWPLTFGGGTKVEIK | 4.08e-05 |
